Molecular target: UniProt P10275
Sequence (P10275 1-920 Q868H): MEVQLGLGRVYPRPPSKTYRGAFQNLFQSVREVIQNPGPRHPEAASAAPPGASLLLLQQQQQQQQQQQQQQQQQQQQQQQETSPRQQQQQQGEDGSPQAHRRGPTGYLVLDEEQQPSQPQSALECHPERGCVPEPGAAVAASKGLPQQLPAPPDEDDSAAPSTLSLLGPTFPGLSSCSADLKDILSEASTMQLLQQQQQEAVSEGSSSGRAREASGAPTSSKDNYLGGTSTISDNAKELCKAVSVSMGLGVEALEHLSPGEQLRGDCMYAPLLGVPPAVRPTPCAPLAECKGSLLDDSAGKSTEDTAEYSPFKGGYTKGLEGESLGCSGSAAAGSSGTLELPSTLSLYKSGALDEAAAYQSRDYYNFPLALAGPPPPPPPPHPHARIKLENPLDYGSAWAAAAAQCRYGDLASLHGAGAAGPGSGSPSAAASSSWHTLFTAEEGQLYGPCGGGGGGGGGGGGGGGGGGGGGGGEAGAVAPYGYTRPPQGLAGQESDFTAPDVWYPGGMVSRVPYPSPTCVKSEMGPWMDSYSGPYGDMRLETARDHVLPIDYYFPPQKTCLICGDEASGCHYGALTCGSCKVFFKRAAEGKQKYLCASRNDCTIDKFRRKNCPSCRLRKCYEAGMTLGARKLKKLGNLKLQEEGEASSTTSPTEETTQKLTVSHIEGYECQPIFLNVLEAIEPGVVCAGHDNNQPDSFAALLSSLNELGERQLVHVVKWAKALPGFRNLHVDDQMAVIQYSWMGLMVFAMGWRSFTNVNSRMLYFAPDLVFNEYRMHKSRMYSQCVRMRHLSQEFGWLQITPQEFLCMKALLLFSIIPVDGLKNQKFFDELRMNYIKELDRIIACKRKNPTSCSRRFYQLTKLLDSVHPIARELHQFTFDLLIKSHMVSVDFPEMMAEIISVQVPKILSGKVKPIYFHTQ
Test: AR Antagonist Cell Assay (MMTV-luciferase reporter, DHT-stimulated)
Details: MDA-MB453-MMTV clone 54-19 cells; antagonism of 100 pM DHT, 17 hr, luciferase readout
reported_metric: IC50

// recorded IC50 for "Cc1ccccc1CNS(=O)(=O)c1ccc(Cc2ccc3oc(=O)cc(C(F)(F)F)c3c2)cc1" : 9.62 µM

Measured IC50 of "O=c1cc(C(F)(F)F)c2cc(Cc3ccc(S(=O)(=O)NCc4ccccc4C(F)(F)F)cc3)ccc2o1" : 4.04 µM

"CCc1ccc(NS(=O)(=O)c2ccc(Cc3ccc4oc(=O)cc(C(F)(F)F)c4c3)cc2)cc1" yielded IC50 of 1.32 µM

Given item "CC(C)N(C)S(=O)(=O)c1ccc(Cc2ccc3[nH]c(=O)cc(C(F)(F)F)c3c2)cc1" , the value recorded as its IC50 is > 10 µM

The molecule listed as "O=c1cc(C(F)(F)F)c2cc(Cc3ccc(S(=O)(=O)NCCCCc4ccccc4)cc3)ccc2[nH]1" shows IC50 equal to > 10 µM

get_value(item= "CCCN(CC1CC1)S(=O)(=O)c1ccc(Cc2ccc3oc(=O)cc(C(F)(F)F)c3c2)cc1" , readout=IC50) returns 1.79 µM

molecule "O=c1cc(C(F)(F)F)c2cc(Cc3ccc(S(=O)(=O)NCCc4ccccn4)cc3)ccc2[nH]1" , IC50 observed: 9.25 µM

So, "O=c1cc(C(F)(F)F)c2cc(Cc3ccc(S(=O)(=O)Nc4ccccc4Cl)cc3)ccc2[nH]1" ? Its IC50 was 3.16 µM

Value of measured IC50 for the entry "COc1cccc(NS(=O)(=O)c2ccc(Cc3ccc4oc(=O)cc(C(F)(F)F)c4c3)cc2)c1" : 1.72 µM

Short answer for "O=c1cc(C(F)(F)F)c2cc(Cc3ccc(S(=O)(=O)NCc4c(F)cccc4Cl)cc3)ccc2[nH]1" : IC50 was > 10 µM

Lookup result for "COCCN(CCOC)S(=O)(=O)c1ccc(Cc2ccc3[nH]c(=O)cc(C(F)(F)F)c3c2)cc1" ; measured IC50: > 10 µM

# molecule "O=c1cc(C(F)(F)F)c2cc(Cc3ccc(S(=O)(=O)NCc4cc(Cl)ccc4F)cc3)ccc2[nH]1" ; its IC50 = > 10 µM

Item: "CN(CCC#N)S(=O)(=O)c1ccc(Cc2ccc3oc(=O)cc(C(F)(F)F)c3c2)cc1" | IC50: 4.72 µM

# molecule "COc1cc(NS(=O)(=O)c2ccc(Cc3ccc4oc(=O)cc(C(F)(F)F)c4c3)cc2)cc(OC)c1" ; its IC50 = 3.24 µM

Note to self: IC50 recorded for "CN1CCN(CCCNS(=O)(=O)c2ccc(Cc3ccc4[nH]c(=O)cc(C(F)(F)F)c4c3)cc2)CC1" was 6.7 µM
